pIC50: −log10 of the molar value.
// Sodium-dependent noradrenaline transporter (Homo sapiens) pIC50 records
metric: pIC50

>>> reported("CNC[C@]1(O)Cc2ccccc2[C@@H]1Oc1ccc(F)cc1C")
8.30
>>> reported("Cc1ccccc1OC1c2ccccc2CC1(O)CNCCO (racemic)")
5.55
>>> reported("CNC[C@]1(O)Cc2ccccc2[C@@H]1Oc1ccccc1OC")
7.77
>>> reported("Cc1ccccc1OC1c2ccccc2CC1(O)CN (racemic)")
7.12
>>> reported("CNC[C@]1(O)Cc2ccccc2[C@@H]1Oc1ccccc1-c1cccc2ccccc12")
8.52
>>> reported("CNC[C@]1(O)Cc2ccccc2[C@@H]1Oc1cccc(C)c1C")
8.52
>>> reported("CNC[C@]1(O)Cc2ccccc2[C@@H]1Oc1ccc(O)cc1C")
8.40
>>> reported("CNC[C@]1(O)Cc2ccccc2[C@@H]1Oc1cc(F)ccc1C")
8.15
>>> reported("CCNCC1(O)Cc2ccccc2C1Oc1ccccc1C (racemic)")
6.15

====

Reported pIC50 values follow for various molecules
# tested system: UniProt:Q01959
# test details: Inhibition of dopamine uptake at human DAT transfected in HEK cells
# Assay type: cell-based, HEK293
pIC50: −log10 of the molar value.
metric: pIC50

>>> reported("CNC[C@]1(O)Cc2ccccc2[C@@H]1Oc1cccc(C)c1C")
5.46
>>> reported("CNC[C@]1(O)Cc2ccccc2[C@@H]1Oc1ccccc1-c1cccc2ccccc12")
5.00

====

// pIC50 lookup, one value per entry
# tested system: Sodium-dependent dopamine transporter (Homo sapiens, UniProt Q01959)
# Sequence (Q01959 whole entry): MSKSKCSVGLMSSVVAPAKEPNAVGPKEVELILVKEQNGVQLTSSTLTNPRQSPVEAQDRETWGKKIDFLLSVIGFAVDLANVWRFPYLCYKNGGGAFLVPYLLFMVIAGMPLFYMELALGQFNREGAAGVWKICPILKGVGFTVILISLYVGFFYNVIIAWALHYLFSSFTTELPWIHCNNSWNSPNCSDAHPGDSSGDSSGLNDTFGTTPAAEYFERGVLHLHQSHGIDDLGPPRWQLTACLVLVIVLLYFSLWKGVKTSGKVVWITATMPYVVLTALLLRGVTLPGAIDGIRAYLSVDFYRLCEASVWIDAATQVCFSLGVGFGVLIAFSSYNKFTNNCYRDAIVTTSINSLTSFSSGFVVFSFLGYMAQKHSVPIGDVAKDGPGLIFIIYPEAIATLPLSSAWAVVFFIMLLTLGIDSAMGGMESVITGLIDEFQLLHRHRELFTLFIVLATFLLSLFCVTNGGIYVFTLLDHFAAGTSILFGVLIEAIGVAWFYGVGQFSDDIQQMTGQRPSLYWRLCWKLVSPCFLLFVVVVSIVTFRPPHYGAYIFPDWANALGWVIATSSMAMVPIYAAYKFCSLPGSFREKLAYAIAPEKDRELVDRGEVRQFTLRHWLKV
# test details: Inhibition of dopamine uptake at human DAT transfected in HEK cells
pIC50: −log10 of the molar value.
metric: pIC50

>>> reported("CNC[C@]1(O)Cc2ccccc2[C@@H]1Oc1ccccc1SC")
"< 5.00"
>>> reported("CCNCC1(O)Cc2ccccc2C1Oc1ccccc1C (racemic)")
"< 5.00"
>>> reported("CNC[C@]1(O)Cc2ccccc2[C@@H]1Oc1c(C)cccc1F")
"< 5.00"
